- Tested on: NCI-H23 lung
- Test Summary: NCI-60 one-dose screen, 48 h (100 = growth as untreated, 0 = no growth, -100 = all killed)
- Condition Notes: 10 µM unless noted
About 83,000 compounds went through this panel and 20% of them were active in at least one assay; those are over-represented in the sample as a whole.
Consider the following compounds; for each one, report its growth.
Answers are plain numbers, in %.

// below: answered compounds
CC(C)C[C@H](NC(=O)Cn1ccc(NCc2ccccc2)cc1=O)B(O)O	31.7
O=C(Nc1ccc(F)cc1)c1cc([N+](=O)[O-])ccc1O	50.1
C#CCN1C(=O)/C(=c2\sc3n(c2=O)C2C(NN=3)N(CC)C(=O)N2CC)c2ccccc21 (stereo not given)	18.5
C=C1C(=O)O[C@H]2[C@H]1CC/C(Cn1cc(-c3ccc(N)cc3)nn1)=C\CC[C@@]1(C)O[C@@H]21	22.3

Now turn to the next compound.
[Q] If you can, please state the reported growth value of O=C(/C=C/c1ccccc1)n1c(-c2ccc(Cl)cc2)nc2ccccc21 .
[A] -24.5
